Experimental system: neurokinin-1 (NK-1) receptor (Homo sapiens, UniProt P25103)
Construct: a human glioblastoma-astrocytoma cell line that endogenously expresses the neurokinin-1 (NK-1) receptor; endogenous in cells; host or cells: U373 human glioblastoma-astrocytoma cells (membranes)
Sequence (P25103 whole entry): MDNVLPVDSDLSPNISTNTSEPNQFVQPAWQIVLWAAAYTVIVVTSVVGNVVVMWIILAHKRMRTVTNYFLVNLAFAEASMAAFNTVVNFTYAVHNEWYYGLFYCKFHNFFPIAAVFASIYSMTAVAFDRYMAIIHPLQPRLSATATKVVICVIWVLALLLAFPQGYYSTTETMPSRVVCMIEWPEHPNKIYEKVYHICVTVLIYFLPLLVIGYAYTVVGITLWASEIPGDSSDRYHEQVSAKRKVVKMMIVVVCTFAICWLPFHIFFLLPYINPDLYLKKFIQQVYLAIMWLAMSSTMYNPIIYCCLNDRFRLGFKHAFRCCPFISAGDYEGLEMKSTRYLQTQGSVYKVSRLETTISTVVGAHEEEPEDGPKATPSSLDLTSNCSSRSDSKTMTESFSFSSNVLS
Assay comment: NK-1 Binding assay ([125I] Substance P competition, U373 cell membranes)
Measurement parameters: Table 1; U373 membranes, [125I] Substance P displacement; read-out: NK-1 IC50
Property measured: IC50

Compound	Experimental system	Test value
FC(F)(F)c1cc(COCC2(c3ccccc3)CCNCC2)cc(-c2ccccc2Cl)c1	neurokinin-1 (NK-1) receptor (Homo sapiens, UniProt P25103)	0.01 to 100 nM
Cc1ccc(-c2cc(COCC3(c4ccccc4)CCNCC3)cc(C(F)(F)F)c2)cc1[N+](=O)[O-]	neurokinin-1 (NK-1) receptor (Homo sapiens, UniProt P25103)	0.01 to 100 nM
FC(F)(F)c1cccc(-c2cc(COCC3(c4ccccc4)CCNCC3)cc(C(F)(F)F)c2)c1	neurokinin-1 (NK-1) receptor (Homo sapiens, UniProt P25103)	0.01 to 100 nM
CC(OCC1(c2ccccc2)CCN(C)CC1)c1cc(-c2ccc(C#N)cc2)cc(C(F)(F)F)c1 (centres unmarked)	neurokinin-1 (NK-1) receptor (Homo sapiens, UniProt P25103)	0.01 to 100 nM
OCc1cccc(-c2cc(COCC3(c4ccccc4)CCNCC3)cc(C(F)(F)F)c2)c1	neurokinin-1 (NK-1) receptor (Homo sapiens, UniProt P25103)	100 to 300 nM
